- EXPERIMENT_SUMMARY: qHTS assay to identify small molecule agonists of H2AX - cell viability counter screen (AID 1224847);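 further: wild-type CHO-K1 cells; top concentration of the series differs between compounds; on the % scale 0 is the no-effect control and ±100 the full control effect; nearly all actives have a fitted effect of over 30% in size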
- EXPERIMENTAL_SETUP: CHO-K1 viability, CellTiter-Glo luminescence, 3 h; series mostly up to 154 µM
- Text: National Center for Advancing Translational Sciences [NCATS] NIH Chemical Genomics Center [NCGC] U.S. Environmental Protection Agency [EPA] National Institutes of Environmental Health Sciences [NIEHS] National Toxicology Program [NTP] U.S. Food and Drug Administration [FDA] HTRF phospho-H2AX (Ser139) assay (Cisbio Bioassays, US) enables the quantitative detection of the histone variant H2AX when phosphorylated on serine 139. […]
Records with an inconclusive call do not appear. The source made the active and inactive calls. The call rests on the fitted dose curve.
ASSAY_ENDPOINT: outcome

compound=c1cc(CCCc2ccncc2)ccn1 meas_value=inactive
compound="CC1CCC(=O)C1=O (stereo not drawn)" meas_value=inactive
compound=CN(C)C(=O)NC1(c2ccccc2)CCN(CC[C@@]2(c3ccc(F)c(F)c3)CN(C(=O)c3ccccc3)CCO2)CC1 meas_value=inactive

---

- SYSTEM_UNDER_TEST: Cytochrome P450 2C19 (Homo sapiens) (UniProt P33261)
- Sequence (P33261 whole entry, looked up): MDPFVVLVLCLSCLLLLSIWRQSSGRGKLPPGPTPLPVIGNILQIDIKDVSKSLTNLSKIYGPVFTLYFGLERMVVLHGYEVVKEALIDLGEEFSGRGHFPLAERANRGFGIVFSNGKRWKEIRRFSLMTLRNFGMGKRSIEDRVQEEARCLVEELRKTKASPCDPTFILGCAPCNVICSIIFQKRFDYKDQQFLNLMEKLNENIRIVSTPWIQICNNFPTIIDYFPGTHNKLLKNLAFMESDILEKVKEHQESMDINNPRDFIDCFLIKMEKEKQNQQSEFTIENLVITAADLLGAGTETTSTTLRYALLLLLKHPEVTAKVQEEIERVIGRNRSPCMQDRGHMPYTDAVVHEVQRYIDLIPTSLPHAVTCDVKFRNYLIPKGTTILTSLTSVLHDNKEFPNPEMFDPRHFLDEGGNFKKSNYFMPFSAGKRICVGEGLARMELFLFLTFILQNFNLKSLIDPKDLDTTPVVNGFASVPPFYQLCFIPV
- EXPERIMENT_SUMMARY: Cytochrome P450 Family 2 Subfamily C Member 19 (CYP2C19) small molecule antagonists: luciferase reporter qHTS assay (AID 1671197); further: nearly all actives have a fitted effect of over 65% in size; further: potency means the concentration at half of the fitted maximal effect
- EXPERIMENTAL_SETUP: P450-Glo CYP2C19 enzyme, luciferin luminescence, 1 h; series mostly up to 52.9 µM
- Description: National Center for Advancing Translational Sciences [NCATS] U.S. Environmental Protection Agency [EPA] National Institutes of Environmental Health Sciences [NIEHS] National Toxicology Program [NTP] U.S. Food and Drug Administration [FDA] Cytochrome P450 (CYP) enzymes are membrane-bound hemeproteins that play a key role in metabolism of drugs and xenobiotics. […] The luciferin products formed are detected with a luciferin detection reagent, and the amount of light produced is proportional to CYP activity. […]
Records with an inconclusive call do not appear. Active and inactive are the calls of the source. The call rests on the fitted dose curve; in most records, active means well fitted inhibition curve with a large enough effect in the repeat runs; inconclusive means weak or mixed curves; inactive means no such curve, though single readings can be large or run the other way.
ASSAY_ENDPOINT: Potency

record_smiles=Nc1c(CC(=O)O)cccc1C(=O)c1ccc(Br)cc1 system_under_test="Cytochrome P450 2C19 (Homo sapiens) (UniProt P33261)" meas_value=inactive
record_smiles=CC(C)CC(=O)C1C(=O)c2ccccc2C1=O system_under_test="Cytochrome P450 2C19 (Homo sapiens) (UniProt P33261)" meas_value="39.9 µM (active)"
record_smiles=CCCCCCCCCCCCCCOS(=O)(=O)O system_under_test="Cytochrome P450 2C19 (Homo sapiens) (UniProt P33261)" meas_value=inactive
record_smiles=CC/C=C\CCOC(=O)CC system_under_test="Cytochrome P450 2C19 (Homo sapiens) (UniProt P33261)" meas_value=inactive
record_smiles=CC(=O)c1cccc([N+](=O)[O-])c1 system_under_test="Cytochrome P450 2C19 (Homo sapiens) (UniProt P33261)" meas_value=inactive
record_smiles=O=C(OCCc1ccccc1)c1ccccc1 system_under_test="Cytochrome P450 2C19 (Homo sapiens) (UniProt P33261)" meas_value="12.6 µM (active)"
record_smiles=CCN(CC)CCNC(=O)c1cc(Br)c(N)cc1OC system_under_test="Cytochrome P450 2C19 (Homo sapiens) (UniProt P33261)" meas_value=inactive
record_smiles=CCOC(=O)Cc1cccc2ccccc12 system_under_test="Cytochrome P450 2C19 (Homo sapiens) (UniProt P33261)" meas_value="20 µM (active)"
record_smiles=CCCCCCCCO[C@@H]1O[C@H](CO)[C@@H](O)[C@H](O)[C@H]1O system_under_test="Cytochrome P450 2C19 (Homo sapiens) (UniProt P33261)" meas_value=inactive
record_smiles=C=CCOC(=O)CCC1CCCCC1 system_under_test="Cytochrome P450 2C19 (Homo sapiens) (UniProt P33261)" meas_value=inactive
record_smiles=O=C1CCC(=O)O1 system_under_test="Cytochrome P450 2C19 (Homo sapiens) (UniProt P33261)" meas_value=inactive
record_smiles=Cc1ccc(N=Nc2c(O)c(C(=O)O)cc3ccccc23)c(S(=O)(=O)O)c1 system_under_test="Cytochrome P450 2C19 (Homo sapiens) (UniProt P33261)" meas_value=inactive
record_smiles=CN1CCC(N(Cc2cccs2)c2ccccc2)CC1 system_under_test="Cytochrome P450 2C19 (Homo sapiens) (UniProt P33261)" meas_value=inactive
record_smiles=CCCCCCCCCCCCN1CCCCCC1=O system_under_test="Cytochrome P450 2C19 (Homo sapiens) (UniProt P33261)" meas_value=inactive

---

- EXPERIMENT_SUMMARY: qHTS assay to identify small molecule antagonists of the estrogen receptor alpha (ER-alpha) signaling pathway using the BG1 cell line in the presence of 0.1 nM 17-beta-estradiol - cell viability counter screen (AID 1259241); further: on the % scale 0 is the no-effect control and ±100 the full control effect; nearly all actives have a fitted effect of over 40% in size
- EXPERIMENTAL_SETUP: VM7Luc4E2 (BG1) viability, CellTiter-Fluor protease, 22 h, 0.1 nM estradiol agonist added; series mostly up to 92.4 µM
Records with an inconclusive call do not appear. Active and inactive are the calls of the source. Calls come from the whole dose curve; as a rule, active = well fitted cell-killing curve with a large enough effect in the repeat runs; inconclusive = weak or mixed curves, or effect the other way; inactive = flat fitted curve, though single readings scatter.
ASSAY_ENDPOINT: activity change, negative = cytotoxicity

compound=CC(=O)NO assay_endpoint="activity change, negative = cytotoxicity" meas_value=inactive
compound="CCC(C)c1cc(C(C)(C)C)c(O)c(C(C)(C)C)c1 (configuration not stated)" assay_endpoint="activity change, negative = cytotoxicity" meas_value=inactive
compound=O=C(Nc1ccc(S(=O)(=O)N2CCOCC2)cc1)c1cc(Cl)ccc1NS(=O)(=O)c1ccc(Cl)s1 assay_endpoint="activity change, negative = cytotoxicity" meas_value=inactive
compound=CN(Cc1ccc(C(C)(C)C)cc1)Cc1cccc2ccccc12 assay_endpoint="activity change, negative = cytotoxicity" meas_value=inactive
compound=CCCn1cnc2c1c(=O)n(CCCCC(C)=O)c(=O)n2C assay_endpoint="activity change, negative = cytotoxicity" meas_value=inactive
compound=COc1ccc(C(=O)c2ccc(OC)cc2O)c(O)c1 assay_endpoint="activity change, negative = cytotoxicity" meas_value=inactive
compound=C/C=C/C(=O)CC assay_endpoint="activity change, negative = cytotoxicity" meas_value="0.659% [at 19 µM] (inactive)"
compound=N=c1ccn2c(n1)O[C@H]1[C@H](O)[C@@H](CO)O[C@H]12 assay_endpoint="activity change, negative = cytotoxicity" meas_value=inactive
compound=Cc1[nH]c(C)c(Cl)c(=O)c1Cl assay_endpoint="activity change, negative = cytotoxicity" meas_value="-5.47% [at 19 µM] (inactive)"
compound="Cc1ccc(C(C)OC(=O)C2(C)CCC(C(=O)O)C2(C)C)cc1 (configuration not stated)" assay_endpoint="activity change, negative = cytotoxicity" meas_value=inactive
compound=CC(=O)OC[C@H]1O[C@@H](n2ncc(=O)[nH]c2=O)[C@H](OC(C)=O)[C@@H]1OC(C)=O assay_endpoint="activity change, negative = cytotoxicity" meas_value=inactive
compound=CNCCCN1c2ccccc2CCc2ccccc21 assay_endpoint="activity change, negative = cytotoxicity" meas_value=inactive

---

- EXPERIMENT_SUMMARY: qHTS assay to identify small molecule that activate the aryl hydrocarbon receptor (AhR) signaling pathway - cell viability counter screen (AID 743086); further: nearly all actives have a fitted effect of over 45% in size
- EXPERIMENTAL_SETUP: HepG2-AhR-luc viability, CellTiter-Fluor, 24 h; series mostly up to 70.3 µM
Inconclusive results are not listed. The source made the active and inactive calls. Calls come from the whole dose curve; as a rule, active = well fitted cell-killing curve with a large enough effect in the repeat runs; inconclusive = weak or mixed curves, or effect the other way; inactive = flat fitted curve, though single readings scatter.
Classes used: y = active, n = inactive

compound=CC(=O)NO label=n
compound=CCOc1ccc(O)cc1 label=n
compound="COc1ccc(-c2nc3ccc(C4=NNC(=O)CC4C)cc3[nH]2)cc1 (centres undefined)" label=n
compound=O=C(OCCc1ccccc1)c1ccccc1 label=n
compound=CCCCCC[C@@H](O)C/C=C\CCCCCCCC(=O)OC label=n
compound=CC(C)O.CC(C)O.CCOC(=O)/C=C(\C)O.CCOC(=O)/C=C(\C)O.[Ti] label=n
compound="CCC(Cl)CCC(Cl)C(Cl)CC(Cl)C(Cl)C(Cl)CCl (centres undefined)" label=n
compound=O=S(c1cc(Cl)cc(Cl)c1O)c1cc(Cl)cc(Cl)c1O label=n
compound=COc1ccc(S(=O)(=O)N2C(=O)[C@@](c3ccccc3OC)(N3C[C@H](O)C[C@H]3C(=O)N(C)C)c3cc(Cl)ccc32)c(OC)c1 label=y
compound=CCOC(=O)C(F)(F)F label=n
compound=O=C(O)c1nc(Cl)c(Cl)c(Cl)c1Cl label=n
compound=CCCCNc1ccc(C(=O)OCCOCCOCCOCCOCCOCCOCCOCCOCCOC)cc1 label=n
compound=Cc1ccccc1S(=O)(=O)O label=n
compound="COc1cc2nc(N3CCN(C(=O)C4COc5ccccc5O4)CC3)nc(N)c2cc1OC (centres undefined)" label=n
compound=C[C@H]1C[C@H]2[C@@H]3CCC4=CC(=O)C=C[C@]4(C)[C@@]3(Cl)[C@@H](O)C[C@]2(C)[C@@]1(O)C(=O)CO label=n
compound=CC(C)(O)c1ccc(CNC(=O)c2cccnc2Oc2ccc(F)cc2)cc1 label=n
compound=C1CCCNCCC1 label=n
compound="C=CCOc1ccccc1OCC(O)CNC(C)C (centres undefined)" label=n
compound="CCN(CC)CCOC(=O)C(c1ccccc1)C1CCCCC1 (centres undefined)" label=n
compound=CN1CCC(=C2c3ccccc3Sc3ccccc32)CC1 label=y
compound=CCOC(=O)COC(=O)c1cc(Oc2ccc(C(F)(F)F)cc2Cl)ccc1[N+](=O)[O-] label=n
compound=OCCNCc1ccccc1 label=n
compound=O=C1c2ccccc2S(=O)(=O)N1CCCCN1CCN(c2ncccn2)CC1 label=n
compound=C#CCN(C)CCCOc1ccc(Cl)cc1Cl label=n
compound=CCN(CC)c1ccc2c(-c3ccccc3C(=O)O)c3ccc(=[N+](CC)CC)cc-3oc2c1 label=y
compound="COc1ccnc(CS(=O)c2nc3ccc(OC(F)F)cc3[nH]2)c1OC (centres undefined)" label=n
compound=Brc1c2ccccc2cc2ccccc12 label=n
compound=CCCCO label=n
compound=Cc1cc(N)c2cc(NC(=O)Nc3ccc4nc(C)cc(N)c4c3)ccc2n1 label=n
compound=CC(C)(CO)[N+](=O)[O-] label=n
compound=Cc1cccc(C)c1OCC(=O)N[C@@H](Cc1ccccc1)[C@@H](O)C[C@H](Cc1ccccc1)NC(=O)[C@H](C(C)C)N1CCCNC1=O label=y
compound="C[C@@H](c1ncncc1F)C(O)(Cn1cncn1)c1ccc(F)cc1F (some centres undefined)" label=n
compound=CCCCCCc1ccc(-c2ccc(C#N)cc2)cc1 label=n
compound=COc1ccc(C)cc1[N+](=O)[O-] label=n
compound=Cc1cccc(C)c1NC(=O)CN(CC(=O)O)CC(=O)O label=n
compound=OC(C#CCN1CCCC1)(c1ccccc1)c1ccccc1 label=n
compound=CC(=O)[O][Al] label=n
compound=CCCCCCCCCCCCCCCCOS(=O)(=O)O label=n
compound=C[N+](C)(C)CCOC(=O)CCC(=O)OCC[N+](C)(C)C label=n
compound=CCCCCCCCCCCCCCCCCCOS(=O)(=O)O label=n
compound=S=C([S-])NCCNC(=S)[S-].[Mn+2] label=n
compound="C[N+]1(C)CCC(OC(=O)C(O)(c2ccccc2)C2CCCC2)C1 (centres undefined)" label=n
compound=Cc1cc(C(=O)O)ccc1[N+](=O)[O-] label=n
compound=CCCCc1nc2cccnc2n1Cc1ccc(-c2ccccc2-c2nnn[nH]2)cc1 label=n
compound=O=C(Nc1ccc(S(=O)(=O)N2CCOCC2)cc1)c1cc(Cl)ccc1NS(=O)(=O)c1ccc(Cl)s1 label=n
compound=CCN(CC)CCNC(=O)c1cc(Br)c(N)cc1OC label=n
compound=O=[N+]([O-])c1cccc(S(=O)(=O)O)c1 label=n
compound=Cc1nn(C)c(Oc2ccccc2)c1/C=N/OCc1ccc(C(=O)OC(C)(C)C)cc1 label=n
compound=O=C(Nc1ccccc1)c1ccccc1O label=n
